Measured Cl of individual entries
species: Rattus norvegicus; assay: Open TG-GATES - Regimen: Single; assay type: toxicity, organism-based, Sprague-Dawley; design: regimen Single, gender Male, age 6 weeks; conditions: in vivo, po, 0 mg/kg, 9 h, tissue Plasma, route gavage, dose level Control
# value in meq/L; strip the unit string

1) Cc1cccc(C)c1OCC(C)N (centres undefined) [MEXILETINE] :: 105.2
2) Cn1cc[nH]c1=S [METHIMAZOLE] :: 106
3) C[C@H]1C(=O)O[C@@H]2CCN3CC=C(COC(=O)[C@](C)(O)[C@]1(C)O)[C@H]23 [MONOCROTALINE] :: 106.8
4) Cc1ccc2cc3c(ccc4ccccc43)c3c2c1CC3 [3-METHYLCHOLANTHRENE] :: 103.4
5) OCCN1CCN(CCCN2c3ccccc3Sc3ccc(C(F)(F)F)cc32)CC1 [FLUPHENAZINE] :: 103.8
6) CCOC(=O)C(C)(C)Oc1ccc(Cl)cc1 [CLOFIBRATE] :: 103
7) O=[N+]([O-])c1ccc(O)c([N+](=O)[O-])c1 [2,4-DINITROPHENOL] :: 104.2
8) C[C@H]1O[C@H](O[C@H]2[C@H](O)[C@@H](O)[C@@H](O[C@H]3[C@H](O)[C@@H](O)C(O)O[C@@H]3CO)O[C@@H]2CO)[C@H](O)[C@@H](O)[C@@H]1N[C@H]1C=C(CO)[C@@H](O)[C@H](O)[C@H]1O (some centres undefined) [ACARBOSE] :: 104.2

Pending compound:
Please supply the value of reported Cl for the item C=C(C)[C@H]1Cc2c(ccc3c2O[C@@H]2COc4cc(OC)c(OC)cc4[C@@H]2C3=O)O1 [ROTENONE]
104.2
